Let's look at some binders and their measured pEC50.
Target: T1, Claudin 6 (human) (human, UniProt P56747 1-220)
T1 construct: Expressed on transfected HEK-293T cells or naturally on PA-1 cells for flow cytometry; For the Octet KD values it was the intact protein embedded in virus-like particles (lipoparticles); also called hsCLDN6; CLDN6
T1 chain: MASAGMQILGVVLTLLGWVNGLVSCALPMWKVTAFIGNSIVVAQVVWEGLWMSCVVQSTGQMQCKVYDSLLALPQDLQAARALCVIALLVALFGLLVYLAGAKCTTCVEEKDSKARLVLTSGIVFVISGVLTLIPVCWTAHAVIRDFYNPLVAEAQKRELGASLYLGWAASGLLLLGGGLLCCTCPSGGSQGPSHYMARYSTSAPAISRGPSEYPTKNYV
Assay: binding assay of the 13th table, method not described
pEC50: −log10 of the molar value.

>  <binder>
IM-271-1HFB (antibody, V domains shown, also called CH-HAMF5-1HFB) VH: EVQLLESGGGLVQPGGSLRLSCAASGFTFSSYAMNWVRQAPGKGLEWVAGISSSGRYTGYADSVKGRFTISRDNSKNTLYLQMNSLRAEDTAVYYCAKSMGSGVSWSGYVATSIDAWGQGTLVTVSS VL: SYELTQPPSVSVSPGQTARITCSGGSGSYGWYQQKPGQAPVLVIYGTYKRPSGIPERFSGSSSGTTVTLTISGVQAEDEADYYCGSADSSTNAGIFGGGTKLTVL

>  <pEC50>
> 8.40

$$$$
>  <binder>
IM-271-1HBF (antibody, V domains shown, also called CH-HAMF5-1HBF) VH: EVQLLESGGGLVQPGGSLRLSCAASGFTFSSYAMNWVRQAPGKGLEWVAGISSSGRYTGYADSVKGRFTISRDNSKNTLYLQMNSLRAEDTAVYYCAKSVGSGVSWSGYVATSIDAWGQGTLVTVSS VL: SYELTQPPSVSVSPGQTARITCSAGSGLYGWYQQKPGQAPVLVIYGTNKRPSGIPERFSGSSSGTTVTLTISGVQAEDEADYYCGSADSSTNAGIFGGGTKLTVL

>  <pEC50>
> 8.40

$$$$
>  <binder>
IM-35-N2H07-1HA (antibody, V domains shown) VH: EVQLLESGGGLVQPGGSLRLSCAASGFTFSGYAMSWVRQAPGKGLEWVAGIYSSGSYTFYADSVKGRFTISRDNSKNTLYLQMNSLRAEDTAVYYCAKGTGYCDWSGWCYSGAANIDAWGQGTLVTVSS VL: SYELTQPPSVSVSPGQTARITCSGGSGSYGYYGWYQQKPGQAPVLVIYGTNKRPSGIPERFSGSSSGTTVTLTISGVQAEDEADYYCGSEDSSSGAGIFGGGTKLTVL

>  <pEC50>
> 8.40

$$$$
